// provenance: ChEMBL document CHEMBL4007393

Would you mind telling me the reported Cmax of each entry?
Test: Cmax in FVB mouse at 30 mg/kg, administered through oral gavage as single dose by LC-MS analysis
Assay type: ADME, organism-based
Parameters: dose 30 mg/kg, route oral
Conditions: in vivo

Query :: Given c1cc([C@H]2CC[C@]3(CC2)OO[C@]2(O3)C3CC4CC(C3)CC2C4)ccc1OCCN1CCOCC1 , state its recorded Cmax.
Result :: 3800 nM

Query :: N[C@H]1CC[C@@H](Oc2ccc([C@H]3CC[C@]4(CC3)OOC3(O4)C4CC5CC(C4)CC3C5)cc2)CC1 (some centres not stated) , same question.
Result :: 1170 nM

Query :: NCCOc1ccc([C@H]2CC[C@]3(CC2)OOC2(O3)C3CC4CC(C3)CC2C4)cc1 (some centres not stated) , same question.
Result :: 287 nM

Query :: NCCCCOc1ccc([C@H]2CC[C@]3(CC2)OOC2(O3)C3CC4CC(C3)CC2C4)cc1 (some centres not stated) , same question.
Result :: 370 nM

Query :: CC(C)(N)CCOc1ccc([C@H]2CC[C@]3(CC2)OOC2(O3)C3CC4CC(C3)CC2C4)cc1 (some centres not stated) , same question.
Result :: 1050 nM

Query :: CC1(C)CC(O)(COc2ccc([C@H]3CC[C@]4(CC3)OOC3(O4)C4CC5CC(C4)CC3C5)cc2)CC(C)(C)N1 (some centres not stated) , same question.
Result :: 1000 nM

Query :: c1cc([C@H]2CC[C@]3(CC2)OOC2(O3)C3CC4CC(C3)CC2C4)ccc1OCCN1CCCOCC1 (some centres not stated) , same question.
Result :: 2610 nM

Query :: CC(C)(O)CNCCCOc1ccc([C@H]2CC[C@]3(CC2)OOC2(O3)C3CC4CC(C3)CC2C4)cc1 (some centres not stated) , same question.
Result :: 1210 nM

Query :: CC(C)(CN)Oc1ccc([C@H]2CC[C@]3(CC2)OOC2(O3)C3CC4CC(C3)CC2C4)cc1 (some centres not stated) , same question.
Result :: 529 nM

Query :: c1cc([C@H]2CC[C@]3(CC2)OOC2(O3)C3CC4CC(C3)CC2C4)ccc1OC1CCNCC1 (some centres not stated) , same question.
Result :: 810 nM

Query :: CC(C)(O)CN1CCC(Oc2ccc([C@H]3CC[C@]4(CC3)OOC3(O4)C4CC5CC(C4)CC3C5)cc2)CC1 (some centres not stated) , same question.
Result :: 1810 nM

Query :: O[C@H]1CC[C@H](NCCCOc2ccc([C@H]3CC[C@]4(CC3)OOC3(O4)C4CC5CC(C4)CC3C5)cc2)CC1 (some centres not stated) , same question.
Result :: 721 nM

----------
Assay: Plasma concentration in rat at 100 mg/kg, po administered every third day for 5 doses measured after 2 weeks
Format: ADME, organism-based
MEASUREMENT_NAME: concentration at 336 h (ng/mL)
The figure you give is taken to be in ng/mL; do not add the unit.

Query :: Given c1cc([C@H]2CC[C@]3(CC2)OO[C@]2(O3)C3CC4CC(C3)CC2C4)ccc1OCCN1CCOCC1 , state its recorded concentration at 336 h.
Result :: 4600

----------
Would you mind telling me the reported AUC(0-inf) of each entry?
Test: AUC (0 to infinity) in FVB mouse at 30 mg/kg, administered through oral gavage as single dose by LC-MS analysis
Type: ADME, organism-based
Set-up: dose 30 mg/kg, time infinity, route oral
Details: in vivo
The figure you give is taken to be in µM·h; do not add the unit.

Query :: Given CC(C)(O)CN1CCC(Oc2ccc([C@H]3CC[C@]4(CC3)OOC3(O4)C4CC5CC(C4)CC3C5)cc2)CC1 (some centres undefined) , state its recorded AUC(0-inf).
Result :: 27.7

Query :: CC(C)(N)CNC(=O)C[C@H]1CC[C@]2(CC1)OOC1(O2)C2CC3CC(C2)CC1C3 (some centres undefined) , same question.
Result :: 2.61

Query :: c1cc([C@H]2CC[C@]3(CC2)OOC2(O3)C3CC4CC(C3)CC2C4)ccc1OCCOC1CCNCC1 (some centres undefined) , same question.
Result :: 19

Query :: O[C@H]1CC[C@H](NCCCOc2ccc([C@H]3CC[C@]4(CC3)OOC3(O4)C4CC5CC(C4)CC3C5)cc2)CC1 (some centres undefined) , same question.
Result :: 12.8
